experimental.target: T1, recombinant human PAD4 (human, UniProt Q9UM07 1-663)
T1 construct: also called rhPAD4; hPAD4
T1 sequence (Q9UM07 whole entry): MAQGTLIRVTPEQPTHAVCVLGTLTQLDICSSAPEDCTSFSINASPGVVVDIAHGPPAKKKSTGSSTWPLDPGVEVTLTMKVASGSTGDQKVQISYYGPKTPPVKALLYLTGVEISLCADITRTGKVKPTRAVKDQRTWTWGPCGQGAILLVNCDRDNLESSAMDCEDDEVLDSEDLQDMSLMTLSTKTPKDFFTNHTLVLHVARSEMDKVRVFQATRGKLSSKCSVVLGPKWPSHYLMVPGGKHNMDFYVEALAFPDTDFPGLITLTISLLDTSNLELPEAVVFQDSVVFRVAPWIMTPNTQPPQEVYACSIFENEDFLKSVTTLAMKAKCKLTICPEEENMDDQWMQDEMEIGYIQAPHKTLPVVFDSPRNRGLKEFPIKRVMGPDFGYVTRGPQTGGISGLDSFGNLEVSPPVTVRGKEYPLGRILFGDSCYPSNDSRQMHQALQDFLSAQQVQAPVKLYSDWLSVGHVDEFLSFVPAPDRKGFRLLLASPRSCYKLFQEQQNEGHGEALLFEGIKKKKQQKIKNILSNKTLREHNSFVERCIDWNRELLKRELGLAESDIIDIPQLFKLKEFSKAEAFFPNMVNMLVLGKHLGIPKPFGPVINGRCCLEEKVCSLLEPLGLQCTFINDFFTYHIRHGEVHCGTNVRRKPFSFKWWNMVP
assay.name: SPR 37 C, captured antibody, PAD4 analyte, 2 mM EDTA
Parameter: kon. Scope: all listed entries.
Respond numerically; units are M⁻¹ s⁻¹ and should not be typed.

Sample answers from the record:
{"binder": "hz20-12 (antibody, V domains shown, light constant region not tied to this antibody) VH: QVQLVQSGAEVAKPGASVKVSCKASGYTFTNYGISWVRQRPGQGLEWMGEIYPRSGNTYHNEKFKDRVTMTTDTSTSTAYMELRSLRSEDTAVYYCARSMITTRYWYFDVWGKGTTVTVSS VL: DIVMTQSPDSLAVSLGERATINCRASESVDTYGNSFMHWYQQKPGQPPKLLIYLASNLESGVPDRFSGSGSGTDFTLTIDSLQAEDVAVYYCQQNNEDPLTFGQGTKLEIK", "measure.name": "kon", "assay.result": 380000}
{"binder": "hz13-7 (antibody, V domains shown, light constant region not tied to this antibody) VH: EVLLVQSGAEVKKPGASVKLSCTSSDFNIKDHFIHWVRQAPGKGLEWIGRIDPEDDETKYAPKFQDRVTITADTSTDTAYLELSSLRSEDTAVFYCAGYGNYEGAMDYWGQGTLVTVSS VL: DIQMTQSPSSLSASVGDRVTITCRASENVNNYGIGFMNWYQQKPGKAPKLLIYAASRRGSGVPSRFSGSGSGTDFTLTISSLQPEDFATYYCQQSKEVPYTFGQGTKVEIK", "measure.name": "kon", "assay.result": "2e+06"}

Could you now look at the following binder, please?
q: For hz20-1 (antibody, V domains shown, light constant region not tied to this antibody) VH: QVQLVQSGAEVKKPGASVKVSCKASGYTFTNYGISWVRQAPGQGLEWMGEIYPRSGNTYHNEKFKDRVTMTRDTSTSTVYMELSSLRSEDTAVYYCARSMITTRYWYFDVWGKGTTVTVSS VL: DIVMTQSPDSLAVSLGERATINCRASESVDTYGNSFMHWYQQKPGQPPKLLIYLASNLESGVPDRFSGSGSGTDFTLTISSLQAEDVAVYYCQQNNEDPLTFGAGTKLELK , write its kon.
a: 220000
